- targetEntity: human RORγt (Ligand Binding Domain) (Homo sapiens)
- Construct: purchased Crelux (Planegg, Germany) batch no PC5032-1
- assayProcedure: Fluorescence Polarization (FP) Assay
- appliedConditions: Fluorescence Polarization (FP) Assay; values given as upper bounds of activity ranges; read-out: FP activity range
propertyLabel: IC50

These solved cases illustrate the format of a correct answer.
Field request: IC50 | item: OC1CCCCC1CNc1ncnc(N2CCC[C@@H]2c2ccc(C(F)(F)F)cc2)c1F (stereo partly shown) [Example 200]
< 1 µM

Lookup COc1ccc(CN(C)c2ncnc(N3CCCC3c3ccc(C(F)(F)F)cc3)c2F)cn1 (stereo not shown) [Example 116]
< 1 µM

Lookup CC1CC(c2ccc(C(F)(F)F)cc2)N(c2ncnc(N[C@H](CC(C)(C)C)C(N)=O)c2F)C1 (stereo partly shown) [Example 18]
< 0.5 µM

Further cases:
Field request: IC50 | item: CC(C)(C)C[C@@H](Nc1ncnc(N2CCC[C@@H]2c2ccc(C(F)(F)F)cc2)c1F)C(=O)O [Example 325]
< 1 µM

Lookup Cc1ccc(CNc2ncnc(N3CCCC3(C)c3ccc(C(F)(F)F)cc3)c2F)cn1 (stereo not shown) [Example 209]
< 1 µM

Lookup NC(=O)[C@@H](CC1CCOCC1)Nc1ncnc(N2CCCC2c2ccc(C(F)(F)F)cc2)c1F (stereo partly shown) [Example 52]
< 2 µM

Lookup CC(=O)N1CCOC([C@@H](CC(C)(C)C)Nc2ncnc(N3CCCC3c3ccc(C(F)(F)F)cc3)c2F)C1 (stereo partly shown) [Example 71]
< 10 µM

Lookup CC1(CNc2ncnc(N3CCC[C@@H]3c3ccc(C(F)(F)F)cc3)c2F)COC1 [Example 198]
< 0.5 µM

Lookup COc1ccc(C[C@H](CO)Nc2ncnc(N3CCCC3c3ccc(C(F)(F)F)cc3)c2F)cc1 (stereo partly shown) [Example 29]
< 1 µM

====

- targetEntity: human RORγt (Ligand Binding Domain) (Homo sapiens)
- Construct: purchased Crelux (Planegg, Germany) batch no PC5032-1
- assayProcedure: Fluorescence Polarization (FP) Assay
- appliedConditions: Fluorescence Polarization (FP) Assay; values given as upper bounds of activity ranges; read-out: FP activity range
A collection of compounds and their measured IC50

These solved cases illustrate the format of a correct answer.
What measured IC50 is associated with O=C1CCCN1c1cccc(CNc2ncnc(N3CCCC3c3ccc(C(F)(F)F)cc3)c2F)c1 (centres unmarked) on human RORγt (Ligand Binding Domain) (Homo sapiens)?
< 2000 nM

Lookup NC(=O)Cc1ccc(CNc2ncnc(N3CCCC3c3ccc(C(F)(F)F)cc3O)c2F)cc1 (centres unmarked)
< 500 nM

Lookup Fc1c(NCC2CCSCC2)ncnc1N1CCC[C@@H]1c1ccc(C(F)(F)F)cc1
< 500 nM

Further cases:
What measured IC50 is associated with CS(=O)(=O)c1ccc(CNc2ncnc(N3CCC[C@@H]3c3ccc(C(F)(F)F)cc3)c2F)cc1 on human RORγt (Ligand Binding Domain) (Homo sapiens)?
< 10000 nM

Lookup CC(C)(O)Cc1ccc(CNc2ncnc(N3CCCC3c3ccc(C(F)(F)F)cc3)c2F)cc1 (centres unmarked)
< 1000 nM

Lookup Cc1cnc(CNc2ncnc(N3CCCC3c3ccc(C(F)(F)F)cc3)c2F)o1 (centres unmarked)
< 10000 nM

Lookup NC(=O)Cc1ccc(CNc2ncnc(N3CCOC[C@@H]3c3ccc(OC(F)(F)F)cc3)c2F)cc1
< 500 nM

Lookup O=S1(=O)CCCC1CNc1ncnc(N2CCC[C@@H]2c2ccc(C(F)(F)F)cc2)c1F (some centres unmarked)
< 10000 nM

Lookup OCC1(CNc2ncnc(N3CC(F)(F)CC3c3ccc(C(F)(F)F)cc3)c2F)COC1 (centres unmarked)
< 1000 nM

Lookup COC1CCCCC1CNc1ncnc(N2CCC[C@@H]2c2ccc(C(F)(F)F)cc2)c1F (some centres unmarked)
< 500 nM

Lookup CCc1ccc(C2CCCN2c2ncnc(NCc3ccc(CC(N)=O)cc3)c2F)o1 (centres unmarked)
< 500 nM

Lookup O=C(O)Cc1ccc(CNc2ncnc(N3CCCC3c3ccc(C(F)(F)F)cc3)c2F)cc1 (centres unmarked)
< 500 nM

Lookup CC(C)C1CCC(CNc2ncnc(N3CCC[C@@H]3c3ccc(C(F)(F)F)cc3)c2F)CC1 (some centres unmarked)
< 500 nM

====

- targetEntity: human RORγt (Ligand Binding Domain) (Homo sapiens, UniProt P51449)
- Construct: purchased Crelux (Planegg, Germany) batch no PC5032-1
- assayProcedure: Fluorescence Polarization (FP) Assay
- appliedConditions: Fluorescence Polarization (FP) Assay; values given as upper bounds of activity ranges; read-out: FP activity range
A collection of compounds and their measured IC50

These solved cases illustrate the format of a correct answer.
Field request: IC50 | item: O=S(=O)(N1CCC(CNc2ncnc(N3CCOC[C@@H]3c3ccc(C(F)(F)F)cc3)c2F)CC1)C(F)(F)F
< 0.5 µM

Lookup O=C1CC(CNc2ncnc(N3CCCC3c3ccc(C(F)(F)F)cc3)c2F)CN1C1CCCC1 (centres unmarked)
< 10 µM

Lookup CC(C)(C)CCNc1ncnc(N2CCCC2c2ccc(C(F)(F)F)cc2)c1F (centres unmarked)
< 10 µM

Lookup NC(=O)c1ccc(CNc2ncnc(N3CCC[C@@H]3c3ccc(C(F)(F)F)cc3)c2F)cc1
< 10 µM

Lookup CC(C)(C)C[C@@H](Nc1ncnc(N2CCCC2c2ccc(C(F)(F)F)cn2)c1F)C(N)=O (some centres unmarked)
< 2 µM

Further cases:
Field request: IC50 | item: COc1ccc(CNc2ncnc(N3CCCC3c3ccc(C(F)(F)F)cc3)c2F)cc1OC (centres unmarked)
< 1 µM

Lookup CS(=O)(=O)N1CCC(CNc2ncnc(N3CCOCC3c3ccccc3)c2F)CC1 (centres unmarked)
< 2 µM

Lookup [O-][n+]1cccc(CNc2ncnc(N3CCC[C@@H]3c3ccc(C(F)(F)F)cc3)c2F)c1
< 10 µM

====

- targetEntity: human RORγt (Ligand Binding Domain) (Homo sapiens, UniProt P51449)
- Construct: purchased Crelux (Planegg, Germany) batch no PC5032-1
- Sequence (P51449 269-508 limits assumed): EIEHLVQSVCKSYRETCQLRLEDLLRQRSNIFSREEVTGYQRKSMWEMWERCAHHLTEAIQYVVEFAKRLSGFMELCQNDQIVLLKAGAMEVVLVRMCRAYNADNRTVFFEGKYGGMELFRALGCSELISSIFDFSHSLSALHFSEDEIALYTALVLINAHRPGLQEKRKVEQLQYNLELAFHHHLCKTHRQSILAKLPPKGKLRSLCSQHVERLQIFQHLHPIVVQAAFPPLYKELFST
- assayProcedure: Fluorescence Polarization (FP) Assay
- appliedConditions: Fluorescence Polarization (FP) Assay; values given as upper bounds of activity ranges; read-out: FP activity range
- Description: The activity of the compounds was evaluated using a Fluorescence Polarization (FP) Assay and, in most cases, a Th17 Assay and/or RORγ Reporter assay (also referred to as Gal4 assay). The FP assay is an in vitro assay monitoring binding within the ligand binding pocket. The RORγ and the Th17 assays are both cell-based assays monitoring functional activity of the compound assayed. The total volume was 25 μl, in a black Perkin Elmer OptiPlate. As negative control, 1 μl DMSO was used. […]
pIC50: −log10 of the molar value.
propertyLabel: pIC50

What measured pIC50 is associated with N#Cc1ccc(CNc2ncnc(N3CCCC3c3ccc(C(F)(F)F)cc3)c2F)cc1 (stereo not shown) on human RORγt (Ligand Binding Domain) (Homo sapiens, UniProt P51449)?
> 6.30

Lookup CS(=O)(=O)c1ccc(Cn2ccc3c(N4CCOC[C@@H]4c4ccc(OC(F)(F)F)cc4)ncnc32)cn1
> 5.70

Lookup Fc1c(NCc2ccncc2)ncnc1N1CCCC1c1ccc(C(F)(F)F)cc1 (stereo not shown)
> 6.30

Lookup CC1(CNc2ncnc(N3CCC[C@@H]3c3ccc(C(F)(F)F)cc3)c2F)CCCO1 (stereo partly shown)
> 6.00

Further cases:
What measured pIC50 is associated with Cc1nc(N[C@H](CC(C)(C)C)C(N)=O)c(C)c(N2CCCC2c2ccc(C(F)(F)F)cc2)n1 (stereo partly shown) on human RORγt (Ligand Binding Domain) (Homo sapiens, UniProt P51449)?
> 5.00

Lookup COc1ccc(C2CCCN2c2ncnc(NCc3ccc(C)nc3)c2F)cc1 (stereo not shown)
> 6.00

Lookup CC(C)(C)C[C@@H](Nc1ncnc(N2CCC[C@@H]2c2ccc(C(F)(F)F)cc2)c1F)C(N)=O (single isomer, unassigned) [Example 62]
> 6.30

====

- targetEntity: yeast Gal4-DNA binding domain fused to the ligand binding domain of human RORγ (Homo sapiens, UniProt P51449)
- Construct: host or cells: HEK293t
- Sequence (P51449 269-508 limits assumed): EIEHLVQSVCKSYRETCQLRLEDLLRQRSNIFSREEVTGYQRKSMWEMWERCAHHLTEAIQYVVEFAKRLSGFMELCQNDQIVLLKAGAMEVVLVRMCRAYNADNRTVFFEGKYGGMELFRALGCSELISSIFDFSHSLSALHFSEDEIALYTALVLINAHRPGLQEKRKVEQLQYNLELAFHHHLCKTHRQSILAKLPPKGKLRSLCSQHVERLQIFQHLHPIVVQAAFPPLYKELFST
- assayProcedure: RORγ Reporter Assay (Gal4)
- Format: cell-based
- appliedConditions: RORγ Reporter Assay (Gal4) at 1 μM; values given as lower bounds of ranges
A collection of molecules and their measured Gal4 activity range @ 1 μM (% inhibition)

Field request: Gal4 activity range @ 1 μM (% inhibition) | item: CC1(CNc2ncnc(N3CCC[C@@H]3c3ccc(C(F)(F)F)cc3)c2F)CCCO1 (stereo partly shown)
>80 % inhibition

Lookup Cc1ccc(CNc2ncnc(N3CCCC3c3ccc(C(F)(F)F)cc3)c2F)cn1 (stereo not shown)
>80 % inhibition

Lookup COc1nc(C)ccc1CNc1ncnc(N2CCCC2c2ccc(C(F)(F)F)cc2)c1F (stereo not shown)
>50 % inhibition

Lookup NC(=O)[C@@H](CC1CCNC1=O)Nc1ncnc(N2CCCC2c2ccc(C(F)(F)F)cc2)c1F (stereo partly shown)
>20 % inhibition

Lookup COc1ccc(Cn2ccc3c(N4CCCC4c4ccc(C(F)(F)F)cc4)ccnc32)cc1OC (stereo not shown)
>80 % inhibition

Lookup NC(=O)Cc1ccc(CNc2ncnc(N3CC(=O)CC3c3ccc(C(F)(F)F)cc3)c2F)cc1 (stereo not shown)
>20 % inhibition

Further cases:
Field request: Gal4 activity range @ 1 μM (% inhibition) | item: NC(=O)Cc1ncc(CNc2ncnc(N3CCCC3c3ccc(C(F)(F)F)cc3)c2F)cn1 (stereo not shown)
>20 % inhibition

Lookup Cc1ccc(CNc2ncnc(N3CCCC3c3ccc(C(F)(F)F)cc3)c2F)o1 (stereo not shown)
>0 % inhibition

Lookup CS(=O)(=O)N1CCC(CNc2ncnc(N3CCOC[C@@H]3c3ccc(C(F)(F)F)cc3)c2F)CC1
>80 % inhibition

Lookup CC(C)(O)Cc1ccc(CNc2ncnc(N3CCCC3c3ccc(C(F)(F)F)cc3)c2F)cc1 (stereo not shown)
>80 % inhibition

Lookup CC(=O)N1CCC(CNc2ncnc(N3CCOC[C@@H]3c3ccc(C(F)(F)F)cc3)c2F)CC1
>80 % inhibition

Lookup CC1CC(c2ccc(C(F)(F)F)cc2)N(c2ncnc(NCc3ccc(CC(N)=O)cc3)c2F)C1 (stereo not shown)
>80 % inhibition

Lookup Oc1ccc(CNc2ncnc(N3CCCC3c3ccc(C(F)(F)F)cc3)c2F)cn1 (stereo not shown)
>20 % inhibition

Lookup Cc1ccc(COc2ncnc(N3CCCC3c3ccc(C(F)(F)F)cc3)c2F)cn1 (stereo not shown)
>80 % inhibition

Lookup CS(=O)(=O)N1CCC(CNc2ncnc(N3CCOC[C@@H]3c3ccc(C(F)(F)F)cc3)c2F)C1 (stereo partly shown)
>80 % inhibition

Lookup CC(C)(C)C[C@@H](Nc1ncnc(N2CCCC2c2ccc(C(F)(F)F)cn2)c1F)C(N)=O (stereo partly shown)
>20 % inhibition
